- Tested on: OVCAR-3
- Test Name: NCI 60 human tumor cell line screen (SRB)
- Format: cell-based
- Settings: OVCAR-3 (Ovarian Cancer); 48 h
Parameter Measured: Log10GI50
Answers are plain numbers.

Worked set:
Cc1ncc(C(=O)N[C@@H](COC(F)F)C(=O)N[C@@H](COC(F)F)C(=O)N[C@@H](Cc2ccccc2)C(=O)[C@@]2(C)CO2)s1 [Example 1]
−7.46
CC(C)C[C@H](NC(=O)[C@H](Cc1ccccc1)NC(=O)[C@H](COC(F)F)NC(=O)CN1CCOCC1)C(=O)[C@@]1(C)CO1 [Example 25]
−7.66
C[C@]1(C(=O)[C@H](Cc2ccccc2)NC(=O)[C@H](COC(F)F)NC(=O)[C@H](COC(F)F)NC(=O)CN2CCOCC2)CO1 [Example 26]
−7.66

Lab note: C[C@]1(C(=O)[C@H](Cc2ccccc2)NC(=O)[C@H](Cc2ccccc2)NC(=O)[C@H](COC(F)F)NC(=O)CN2CCOCC2)CO1 [Example 29] gave Log10GI50 of −7.35
